Tested on: SKOV3
assay text: Primary qHTS to identify gynecologic anti-cancer compounds using libraries of approved drugs and bioactive compounds (AID 1345084); further: nearly all actives have a fitted effect of over 55% in size
run conditions: Gynecologic cancer cell panel viability, ATPlite luminescence, 48 h; series mostly up to 57.5 µM
Records with an inconclusive call do not appear. Activity calls are given as the source filed them. The call rests on the fitted dose curve; in most records, active means well fitted cell-killing curve with a large enough effect; inconclusive means small, poorly fitted or top-dose-only effect, or effect the other way; inactive means flat fitted curve, though single readings scatter.
Classes used: 1.0 = active, 0.0 = inactive

molecule: C=CCN1CC[C@]23c4c5ccc(O)c4O[C@H]2[C@@H](O)CC[C@@]3(O)[C@H]1C5
class label: 0.0

molecule: C[C@H]1O[C@@H](O[C@H]2CC[C@]3(CO)C4CC[C@]5(C)[C@@H](C6=CC(=O)OC6)CC[C@]5(O)[C@@H]4CC[C@H]3C2)[C@H](O)[C@H](O)[C@@H]1O[C@@H]1O[C@H](CO)[C@@H](O)[C@H](O)[C@H]1O (stereo partly drawn)
class label: 1.0

molecule: C[C@]12CC[C@@H](O[C@@H]3O[C@H](CO)[C@@H](O)[C@H](O)[C@H]3O)C[C@@]1(O)CCC1C2CC[C@]2(C)[C@@H](C3=CC(=O)OC3)CC[C@]12O (stereo partly drawn)
class label: 1.0

molecule: CCCCn1cc(C(=O)c2cccc3ccccc23)c2ccccc21
class label: 0.0

molecule: C=C1C(=O)CC2OC2(C)CC2OC(=O)C(=C)C2C(O)C1OC(=O)/C(C)=C\C (stereo not drawn)
class label: 0.0

molecule: CCCCOC(=O)c1ccnc2cc(C(OCCN3CCCCC3)c3ccccc3Cl)sc12 (stereo not drawn)
class label: 0.0

molecule: CCCCCn1cc(C(=O)Oc2cccc3cccnc23)c2ccccc21
class label: 0.0

molecule: CC(=O)O[C@H]1CN2CCC1CC2
class label: 0.0
